# TEST DESCRIPTION: Human pharmacokinetic study, Example 5 Arm II (multiple dose, crossover)
# Type: in vivo
# CONDITION NOTES: both sexes, human, blood, oral; Example 5 Arm II, multiple dose 14 days, non-fasting; Regimen B (reference regimen): two Triple Tablets + one Single Tablet morning, one Single Tablet evening; N = 63; read-out: Tmax, first value (geometric mean)
VALUE KIND: Tmax
Reply with the number and its unit after it.

# input For the molecule COc1c(-c2ccc3cc(NS(C)(=O)=O)ccc3c2)cc(-n2ccc(=O)[nH]c2=O)cc1C(C)(C)C , what Tmax is on record?
# output 4 h

----------
# TEST DESCRIPTION: Human pharmacokinetic study, Example 4 Arm II (single dose, crossover)
# Format: in vivo
# CONDITION NOTES: both sexes, human, blood, oral, 3 Formulation C5-12 tablets, Example 4 Arm II, single dose, non-fasting; Regimen E (C5-12): three Formulation C5-12 tablets in the morning; N = 13; read-out: AUC∞, geometric mean
VALUE KIND: AUC(0-inf)

Completed entries (count: 2):
COMPOUND	AUC(0-inf)
CC(C)c1nc(CN(C)C(=O)N[C@H](C(=O)N[C@@H](Cc2ccccc2)C[C@H](O)[C@H](Cc2ccccc2)NC(=O)OCc2cncs2)C(C)C)cs1 [Compound 3, reference compound]	8270 ng·h/mL
COc1c(-c2ccc3cc(NS(C)(=O)=O)ccc3c2)cc(-n2ccc(=O)[nH]c2=O)cc1C(C)(C)C [Compound 4]	18600 ng·h/mL

# input Query (compound): Cc1cnc(C(=O)N[C@H]2CCCCC/C=C\[C@@H]3C[C@@]3(C(=O)NS(=O)(=O)C3CC3)NC(=O)[C@@H]3C[C@@H](Oc4nc5ccccc5c5ccccc45)CN3C2=O)cn1 [Compound 1] ; field requested: AUC(0-inf)
# output 4330 ng·h/mL

The reported measurements were obtained from patent US10105365B2.
